src = paper PMC5122889

assay_procedure: in vitro
Parameters: metabolic stability in liver microsomes with NADPH, UHPLC-MS/MS quantitation of parent compound
condition_notes: pH 7.4; liver microsomes; human liver microsomes; read-out: Cl int (µL/min/mg protein)
measurement_name: microsomal CLint at 1 µM (µL/min/mg)
Kindly answer with a numeric value in µL/min/mg, unit omitted.

### Prompt Please report microsomal CLint at 1 µM for the following compound: CC(C)C[C@H](CN)CC(=O)O [Pregabalin]
### Response 2.3

---

assay_procedure: in vitro
Set-up: metabolic stability in mouse liver microsomes with NADPH-regenerating system, parent compound by UHPLC-MS/MS
condition_notes: pH 7.4; liver microsomes; mouse liver microsomes; read-out: Cl int (mouse)
measurement_name: microsomal CLint at 1 µM

### Prompt Please report microsomal CLint at 1 µM for the following compound: O=C(OCCN1CCOCC1)C1(c2ccccc2)CCCCC1 [PRE]
### Response 949 µL/min/mg

---

assay_procedure: in vitro
Parameters: metabolic stability in human liver microsomes with NADPH-regenerating system, parent compound by UHPLC-MS/MS
condition_notes: pH 7.4; liver microsomes; human liver microsomes; read-out: Cl int (human)
measurement_name: microsomal CLint at 1 µM
Number first, unit second.

### Prompt Please report microsomal CLint at 1 µM for the following compound: O=C(OCCN1CCOCC1)C1(c2ccccc2)CCCCC1 [PRE]
### Response 103 µL/min/mg

---

tested_target: sigma-1 receptor (Mus musculus, UniProt O55242)
Sequence (O55242 whole entry): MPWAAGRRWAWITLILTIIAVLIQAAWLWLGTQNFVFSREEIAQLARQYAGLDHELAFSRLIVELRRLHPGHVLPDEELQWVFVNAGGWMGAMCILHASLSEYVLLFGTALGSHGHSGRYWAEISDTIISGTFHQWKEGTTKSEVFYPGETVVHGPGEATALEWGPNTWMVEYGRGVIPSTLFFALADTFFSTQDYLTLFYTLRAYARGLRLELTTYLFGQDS
measurement_name: pIC50
// pIC50: -log10(molar conc.)

### Prompt Please report pIC50 for the following molecule: O=C(OCCN1CCOCC1)C1(c2ccccc2)CCCCC1 [PRE]
### Response 6.73

---

assay_procedure: in vitro
Set-up: metabolic stability in liver microsomes with NADPH, UHPLC-MS/MS quantitation of parent compound
condition_notes: pH 7.4, liver microsomes, mouse liver microsomes, read-out: % parent compound remaining at 1 h
measurement_name: remaining at 1 h, 1 µM (%)
Kindly answer with a numeric value in %, unit omitted.

### Prompt Please report remaining at 1 h, 1 µM for the following molecule: CC(C)C[C@H](CN)CC(=O)O
### Response 97

---

assay_procedure: in vitro
Parameters: metabolic stability in human liver microsomes with NADPH-regenerating system, parent compound by UHPLC-MS/MS
condition_notes: pH 7.4; liver microsomes; human liver microsomes; read-out: t1/2 (human)
measurement_name: half-life at 1 µM (min)
Kindly answer with a numeric value in min, unit omitted.

### Prompt Please report half-life at 1 µM for the following molecule: O=C(OCCN1CCOCC1)C1(c2ccccc2)CCCCC1
### Response 13

---

assay_procedure: in vitro
Parameters: metabolic stability in liver microsomes with NADPH, UHPLC-MS/MS quantitation of parent compound
condition_notes: pH 7.4; liver microsomes; human liver microsomes
measurement_name: half-life at 1 µM (h)
Kindly answer with a numeric value in h, unit omitted.

### Prompt Please report half-life at 1 µM for the following molecule: CC(C)C[C@H](CN)CC(=O)O
### Response 17.9
